System: NCI-H2228
Assay: Antiproliferative activity against human NCI-H2228 cells measured after 72 hrs by MTT assay
Assay type: functional, cell-based
Conditions: NCI-H2228, 72 h
measuredAttribute: IC50

* CCn1cc(/C(=N/Nc2nc(-c3ccc(OC)cc3)c(C#N)s2)C(F)(F)F)c2cc(-c3nc(CN4CC(O)C4)cs3)ccc21 | > 15 µM
* CCn1cc(/C(=N/Nc2nc(-c3ccc(Cl)cc3)c(C#N)s2)C(F)(F)F)c2cc(-c3nc(CN4CCN(C)CC4)cs3)ccc21 | > 15 µM
* Cc1[nH]c2cc(F)c(N3CCC(C(=O)N4CCCC4)CC3)cc2c1/C(=N/Nc1nc(-c2ccc(F)cc2)c(C#N)s1)C(F)(F)F | > 15 µM
* CCn1cc(/C(=N/Nc2nc(-c3ccc(Cl)cc3)c(C#N)s2)C(F)(F)F)c2cc(-c3nc(CN4CCC[C@H]4CO)cs3)ccc21 | > 15 µM
* Cn1cc(/C(=N/Nc2nc(-c3ccc(F)cc3)c(C#N)s2)C(F)(F)F)c2cc(-c3nc(CN4CCC(O)CC4)cs3)ccc21 | 9.65 µM
* CCn1cc(/C(=N/Nc2nc(-c3ccc(F)cc3)c(C#N)s2)C(F)(F)F)c2cc(-c3nc(CN4CCOCC4)cs3)ccc21 | > 15 µM
* CCn1cc(/C(=N/Nc2nc(-c3ccc(F)cc3)c(C#N)s2)C(F)(F)F)c2cc(-c3nc(CN4CCCC4)cs3)ccc21 | 6.31 µM
* CCc1nc2c(C)cc(N3CCN(CC(=O)N4CC(O)C4)CC3)cn2c1N(C)c1nc(-c2ccc(F)cc2)c(C#N)s1 | > 15 µM
* CCn1cc(/C(=N/Nc2nc3ccccc3s2)C(F)(F)F)c2cc(-c3nc(CN4CCC(C)CC4)cs3)ccc21 | > 15 µM
* CCn1cc(/C(=N/Nc2nc(-c3ccc(Cl)cc3)c(C#N)s2)C(F)(F)F)c2cc(-c3nc(CN4CC(O)C4)cs3)ccc21 | > 15 µM
* CCn1cc(/C(=N/Nc2nc(-c3ccc(F)cc3)c(C#N)s2)C(F)(F)F)c2cc(-c3nc(CN4CCCCC4)cs3)ccc21 | 5.71 µM
* CCn1cc(/C(=N/Nc2nc3ccccc3s2)C(F)(F)F)c2cc(-c3nc(CN4CCC(O)CC4)cs3)ccc21 | 7.18 µM
* CCn1cc(/C(=N/Nc2nc(-c3ccc(OC)cc3)c(C#N)s2)C(F)(F)F)c2cc(-c3nc(CN4CCC(O)CC4)cs3)ccc21 | > 15 µM
* CCn1cc(/C(=N/Nc2nc3ccccc3s2)C(F)(F)F)c2cc(-c3nc(CN4CCCCC4)cs3)ccc21 | 7.93 µM
* CCn1cc(/C(=N/Nc2nc(-c3ccc(OC)cc3)c(C#N)s2)C(F)(F)F)c2cc(-c3nc(CN4CCCC4)cs3)ccc21 | > 15 µM

---

System: NCI-H2228
Test: Antiproliferative activity against human NCI-H2228 cells measured after 72 hrs by MTT assay
Format: functional, cell-based
Conditions: NCI-H2228, 72 h
pIC50: −log10 of the molar value.
measuredAttribute: pIC50

• O=C(CCN1CCN(C(=O)OCc2cc(Cl)cc(Cl)c2)CC1)c1ccc2[nH]c(=O)oc2c1 = 4.95
• Cc1[nH]c2cc(F)c(N3CCN(CCN(C)C)CC3)cc2c1/C(=N/Nc1nc(-c2ccc(F)cc2)c(C#N)s1)C(F)(F)F = < 4.82
• CCN1CCN(Cc2csc(-c3ccc4c(c3)c(/C(=N/Nc3nc(-c5ccc(Cl)cc5)c(C#N)s3)C(F)(F)F)cn4CC)n2)CC1 = < 4.82
• Cn1cc(/C(=N/Nc2nc(-c3ccc(Cl)cc3)c(C#N)s2)C(F)(F)F)c2cc(-c3nc(CN4CCOCC4)cs3)ccc21 = < 4.82

---

A collection of compounds and their measured pIC50
Tested on: A549
Assay: Antiproliferative activity against human A549 cells measured after 72 hrs by MTT assay
Assay type: functional, cell-based
Settings: A549, 72 h
pIC50: −log10 of the molar value.
measuredAttribute: pIC50

* CCn1cc(/C(=N/Nc2nc(-c3ccc(F)cc3)c(C#N)s2)C(F)(F)F)c2cc(-c3nc(CN4CCN(CCO)CC4)cs3)ccc21 | 5.14
* CCn1cc(/C(=N/Nc2nc3ccccc3s2)C(F)(F)F)c2cc(-c3nc(CN4CCN(C)CC4)cs3)ccc21 | 5.13
* CCn1cc(/C(=N/Nc2nc(-c3ccc(OC)cc3)c(C#N)s2)C(F)(F)F)c2cc(-c3nc(CN4CCN(C)CC4)cs3)ccc21 | 5.31
* CCn1cc(/C(=N/Nc2nc(-c3ccc(OC)cc3)c(C#N)s2)C(F)(F)F)c2cc(-c3nc(CN4CCC[C@H]4CO)cs3)ccc21 | 4.96

---

Test system: MCF7
Assay: Antiproliferative activity against human MCF7 cells measured after 72 hrs by MTT assay
Assay type: functional, cell-based
Details: MCF7, 72 h
A collection of compounds and their measured IC50
measuredAttribute: IC50 (µM)

• CCn1cc(/C(=N/Nc2nc(-c3ccc(F)cc3)c(C#N)s2)C(F)(F)F)c2cc(-c3nc(CN4CCN(C)CC4)cs3)ccc21 = 2.1
• CCn1cc(/C(=N/Nc2nc(-c3ccc(F)cc3)c(C#N)s2)C(F)(F)F)c2cc(-c3nc(CN4CCOCC4)cs3)ccc21 = 2.31
• CCc1nc2c(C)cc(N3CCN(CC(=O)N4CC(O)C4)CC3)cn2c1N(C)c1nc(-c2ccc(F)cc2)c(C#N)s1 = 8.32
• Cn1cc(/C(=N/Nc2nc(-c3ccc(F)cc3)c(C#N)s2)C(F)(F)F)c2cc(-c3nc(CN4CCC(O)CC4)cs3)ccc21 = 4.83
• Cc1[nH]c2cc(F)c(N3CCC(C(=O)N4CCCC4)CC3)cc2c1/C(=N/Nc1nc(-c2ccc(F)cc2)c(C#N)s1)C(F)(F)F = 0.75

---

A collection of molecules and their measured pIC50
System: NCI-H2228
Assay: Antiproliferative activity against human NCI-H2228 cells measured after 72 hrs by MTT assay
Assay type: functional, cell-based
Settings: NCI-H2228, 72 h
pIC50: −log10 of the molar value.
measuredAttribute: pIC50

- CCn1cc(/C(=N/Nc2nc(-c3ccc(F)cc3)c(C#N)s2)C(F)(F)F)c2cc(-c3nc(CN4CCN(CCO)CC4)cs3)ccc21: < 4.82
- CCn1cc(/C(=N/Nc2nc(-c3ccc(F)cc3)c(C#N)s2)C(F)(F)F)c2cc(-c3nc(CN4CCC[C@H]4C(=O)O)cs3)ccc21: < 4.82
- Cc1[nH]c2cc(F)c(N3CCC(C(=O)N4CCOCC4)CC3)cc2c1/C=N/Nc1nc(-c2ccc(F)cc2)c(C#N)s1: < 4.82

---

Target: Autotaxin (Homo sapiens)
measuredAttribute: IC50 (nM)

* CCn1cc(/C(=N/Nc2nc3ccccc3s2)C(F)(F)F)c2cc(-c3nc(CN4CCCCC4)cs3)ccc21 | 107
* CCn1cc(/C(=N/Nc2nc(-c3ccc(F)cc3)c(C#N)s2)C(F)(F)F)c2cc(-c3nc(CN4CCCCC4)cs3)ccc21 | 3430
* CCN1CCN(Cc2csc(-c3ccc4c(c3)c(/C(=N/Nc3nc(-c5ccc(Cl)cc5)c(C#N)s3)C(F)(F)F)cn4CC)n2)CC1 | 2130
* Cc1[nH]c2cc(F)c(N3CCC(C(=O)N4CCCC4)CC3)cc2c1/C(=N/Nc1nc(-c2ccc(F)cc2)c(C#N)s1)C(F)(F)F | 57
